Source listed as patent US9822069B2.

- System Tested: human FPRL1 (Homo sapiens, UniProt P25090)
- Sequence (P25090 whole entry): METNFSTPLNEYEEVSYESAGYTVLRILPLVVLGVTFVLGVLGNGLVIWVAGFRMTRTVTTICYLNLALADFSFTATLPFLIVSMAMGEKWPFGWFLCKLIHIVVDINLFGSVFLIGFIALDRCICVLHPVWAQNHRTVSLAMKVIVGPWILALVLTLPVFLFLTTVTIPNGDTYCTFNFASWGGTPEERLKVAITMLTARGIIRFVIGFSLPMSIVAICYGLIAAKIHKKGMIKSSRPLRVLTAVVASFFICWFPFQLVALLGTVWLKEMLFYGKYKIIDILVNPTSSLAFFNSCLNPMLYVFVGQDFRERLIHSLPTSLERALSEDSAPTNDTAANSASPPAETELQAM
- Assay Text: Measurement test of agonist activity on human FPRL1 (test of calcium mobilization in cell, HEK293 with human FPRL1 and Gα15 expression vectors)
- Assay Conditions: calcium mobilization in HEK293 cells with human FPRL1 and Gα15 expression vectors
Assignment: determine reported pEC50 for the given compounds.
// pEC50: -log10(molar conc.)

(Q) Give human FPRL1 (Homo sapiens, UniProt P25090) pEC50 for COc1cc(F)c([C@@H]2CN=C(Nc3ccn(C)n3)[C@H]2NC(=O)Nc2ccc(F)cc2)c(F)c1 (single isomer, unassigned) [EXAMPLE 32-16]
(A) 9.27

(Q) Provide value of pEC50 for this record tested with human FPRL1 (Homo sapiens, UniProt P25090): COc1cc(F)c([C@@H]2CNC(=O)[C@H]2NC(=O)Nc2ccc(C#N)c(O)c2)c(F)c1 (relative stereo) [Example 1-73]
(A) 8.92

(Q) Record lookup: for human FPRL1 (Homo sapiens, UniProt P25090), what pEC50 belongs to COc1cc(F)c([C@@H]2CNC(=O)[C@H]2NC(=O)Nc2ccc(Oc3ccccc3)cc2)c(F)c1 (relative stereo) [Example 7-7] ?
(A) 8.81

(Q) Please provide the recorded pEC50 for COc1ccc([C@@H]2CNC(=O)[C@H]2NC(=O)Nc2ccc(F)cc2)c(F)c1 (single isomer, unassigned) [EXAMPLE 1-9] , tested on human FPRL1 (Homo sapiens, UniProt P25090).
(A) 9.35

(Q) # get_value(readout= pEC50, system= human FPRL1 (Homo sapiens, UniProt P25090)) for COc1ccc([C@@H]2CNC(=O)[C@H]2NC(=O)Nc2ccc(Cl)cc2)cc1 (single isomer, unassigned) [EXAMPLE 1-2]
(A) 10.05

(Q) Which pEC50 is reported with human FPRL1 (Homo sapiens, UniProt P25090) for this entry: CC(C)(C(=O)O)N1C[C@@H](c2cc3c(cc2F)OCC3)[C@H](NC(=O)Nc2ccc(F)cc2)C1=O (relative stereo) [Example 22-2] ?
(A) 9.42

---

- Test system: mouse (BALB/c, male)
- Assay Text: Effect of lipopolysaccharide induction on neutrophilic infiltration in mouse lung
- Assay type: in vivo
- Assay Conditions: 5 h; neutrophil infiltration in BAL fluid, LPS-exposed BALB/c mouse, oral, dose 1 mg/kg; read-out: SUPPRESSION RATIO
Measured Metric: inhibition in vivo at 1 mg/kg

(Q) inhibition in vivo at 1 mg/kg for COc1ccc([C@@H]2CNC(=O)[C@H]2NC(=O)Nc2ccc(F)cc2)cc1 (single isomer, unassigned) ?
(A) 95.1%

(Q) What inhibition in vivo at 1 mg/kg value was documented for this molecule, COc1cc(F)c([C@@H]2CNC(=O)[C@H]2NC(=O)Nc2ccc(Cl)cc2)c(F)c1 (single isomer, unassigned) ?
(A) 93.1%

(Q) Reported inhibition in vivo at 1 mg/kg for COc1cc(F)c([C@@H]2CN/C(=N\OCCO)[C@H]2NC(=O)Nc2ccc(F)cc2)c(F)c1 (single isomer, unassigned) : what is it?
(A) 99.8%

---

I'd be grateful if you could share measured EC50 for these entries.
- System Tested: human FPRL1 (Homo sapiens, UniProt P25090)
- Assay Text: Measurement test of agonist activity on human FPRL1 (test of calcium mobilization in cell, HEK293 with human FPRL1 and Gα15 expression vectors)
- Assay Conditions: calcium mobilization in HEK293 cells with human FPRL1 and Gα15 expression vectors
Just the number in nM, nothing appended.

(Q) Given the entry COc1ccc([C@@H]2CN(CCO)C(=O)[C@H]2NC(=O)Nc2ccc(Cl)cc2)cc1 (single isomer, unassigned) [Example 15-1B] , what EC50 was observed with human FPRL1 (Homo sapiens, UniProt P25090)?
(A) 1.99

(Q) Query EC50 on human FPRL1 (Homo sapiens, UniProt P25090) for COc1cc(F)c([C@@H]2CN(CS(N)(=O)=O)C(=O)[C@H]2NC(=O)Nc2ccc(F)cc2)c(F)c1 (relative stereo)
(A) 0.03

(Q) Item CCOC(=O)CN1C[C@@H](c2cc3c(cc2F)OCC3)[C@H](NC(=O)Nc2ccc(F)cc2)C1=O (single isomer, unassigned) with human FPRL1 (Homo sapiens, UniProt P25090) - EC50?
(A) 0.15

(Q) Quick check: EC50 on human FPRL1 (Homo sapiens, UniProt P25090), item COc1ccc([C@@H]2CNC(=O)C2NC(=O)Nc2ccc(Cl)cc2)cc1 (mixture of isomers) ?
(A) 0.18

(Q) Please state recorded EC50 (tested on human FPRL1 (Homo sapiens, UniProt P25090)) of COc1ccc([C@@H]2CN(C(C)C(=O)O)C(=O)[C@H]2NC(=O)Nc2ccc(F)cc2)cc1 (single isomer, unassigned; isomer a) [Example 18-1]
(A) 2.36

(Q) # query: EC50 | item COc1cc(F)c([C@@H]2CNC(=O)[C@H]2NC(=O)Nc2ccc(C)cc2)c(F)c1 (relative stereo) | system: human FPRL1 (Homo sapiens, UniProt P25090)
(A) 0.86

(Q) Find the measured EC50: item O=C(Nc1ccc(F)cc1)N[C@@H]1C(=O)NC[C@H]1c1c(F)cc(OC(F)F)cc1F (relative stereo) , target or system human FPRL1 (Homo sapiens, UniProt P25090).
(A) 1.8

(Q) Hi! What's the reported EC50 for COc1cc(F)c([C@@H]2CNC(=O)[C@H]2NC(=O)Nc2ccc(C3CC3)cc2)c(F)c1 (relative stereo) on human FPRL1 (Homo sapiens, UniProt P25090)?
(A) 1.05

(Q) EC50 of COc1cc(F)c([C@@H]2CNC(=O)[C@H]2NC(=O)Nc2ccc(C)s2)c(F)c1 (relative stereo) on human FPRL1 (Homo sapiens, UniProt P25090)?
(A) 3.51

(Q) Recall the recorded EC50 for COc1ccc([C@@H]2CNC(=O)[C@H]2NC(=O)Nc2ccc(F)cc2)c(C)c1 (single isomer, unassigned) with human FPRL1 (Homo sapiens, UniProt P25090) and state it.
(A) 1.59

(Q) # get_value(readout= EC50, system= human FPRL1 (Homo sapiens, UniProt P25090)) for COc1cc(F)c([C@@H]2CNC(=O)[C@H]2NC(=O)Nc2ccccc2)c(F)c1 (relative stereo)
(A) 0.45

(Q) Give the reported EC50 for COc1cnc([C@@H]2CNC(=O)[C@H]2NC(=O)Nc2ccc(F)cc2)c(F)c1 (single isomer, unassigned) (system: human FPRL1 (Homo sapiens, UniProt P25090)).
(A) 0.36

(Q) Request body: readout EC50, system human FPRL1 (Homo sapiens, UniProt P25090), query CO/N=C1\NC[C@@H](c2c(F)cc(OC)cc2F)[C@@H]1NC(=O)Nc1ccc(F)cc1 (single isomer, unassigned) . Return the value.
(A) 0.05
